# Tested on: CAKI-1
# assay-summary: NCI 60 human tumor cell line screen (SRB)
# Assay type: cell-based
# settings: CAKI-1 (Renal Cancer); 48 h
endpoint: Log10TGI50
Give bare numbers.

Form field Log10TGI50, entry Cc1ncc(C(=O)N[C@@H](COC(F)F)C(=O)N[C@@H](COC(F)F)C(=O)N[C@@H](Cc2ccccc2)C(=O)[C@@]2(C)CO2)s1 : −5.28

I would be grateful if you could provide Log10TGI50 for each of the following entries.
1. CC(C)C[C@H](NC(=O)[C@H](Cc1ccccc1)NC(=O)[C@H](COC(F)F)NC(=O)CN1CCOCC1)C(=O)[C@@]1(C)CO1
2. C[C@]1(C(=O)[C@H](Cc2ccccc2)NC(=O)[C@H](COC(F)F)NC(=O)[C@H](COC(F)F)NC(=O)CN2CCOCC2)CO1
3. C[C@]1(C(=O)[C@H](Cc2ccccc2)NC(=O)[C@H](Cc2ccccc2)NC(=O)[C@H](COC(F)F)NC(=O)CN2CCOCC2)CO1

[reply]
1. −6.09
2. −6.09
3. −5.94
